assay: Hemolytic activity in human red blood cells at 400 ug/ml incubated for 45 mins by spectrophotometric analysis relative to control; format: toxicity, cell-based, Erythrocyte; conditions: red blood cells (erythrocytes), at 400 µg/mL, read-out: Activity
property_measured: hemolysis at 0.75 h, 400 ug/ml

CC[C@H](C)[C@@H](NC(=O)[C@@H](NC(=O)[C@H](CCC(=O)O)NC(=O)[C@H](Cc1ccccc1)NC(=O)[C@@H](CCN)NC(=O)[C@H](CCN)NC(=O)[C@H](CO)NC(=O)[C@@H](Cc1c[nH]c2ccccc12)NC(=O)[C@@H](CO)NC(=O)CNC(=O)[C@@H](CCN)NC(=O)[C@H](NC(=O)[C@@H](N)CCN)C(C)C)C(C)C)C(=O)N[C@@H](C)C(=O)O = 10%
CC[C@H](C)[C@@H](NC(=O)[C@@H](NC(=O)[C@H](C)NC(=O)[C@H](Cc1ccccc1)NC(=O)[C@@H](CCN)NC(=O)[C@H](CCN)NC(=O)[C@H](CO)NC(=O)[C@@H](Cc1c[nH]c2ccccc12)NC(=O)[C@@H](CO)NC(=O)CNC(=O)[C@@H](CCN)NC(=O)[C@H](N)C(C)C)C(C)C)C(=O)N[C@@H](C)C(=O)O = 0%
CC[C@H](C)[C@@H](NC(=O)[C@@H](NC(=O)[C@H](CCC(=O)O)NC(=O)[C@H](Cc1ccccc1)NC(=O)[C@@H](CCN)NC(=O)[C@H](CN)NC(=O)[C@H](CO)NC(=O)[C@@H](Cc1c[nH]c2ccccc12)NC(=O)[C@@H](CO)NC(=O)CNC(=O)[C@@H](CCN)NC(=O)[C@H](NC(=O)[C@H](C)N)C(C)C)C(C)C)C(=O)N[C@@H](C)C(=O)O = 0%

====

test: Binding affinity to gram negative bacterial lipid II assessed as dissociation constant by ITC analysis; design: species or system Bacteria
Binary call on Kd with cut-off 3000 nM: strictly below means true (1), and equality or higher means false (0).

CC[C@H](C)[C@H](N)C(=O)N[C@@H](C(=O)N[C@H](CCN)C(=O)NCC(=O)N[C@H](CO)C(=O)N[C@H](Cc1c[nH]c2ccccc12)C(=O)N[C@@H](CO)C(=O)N[C@@H](CCN)C(=O)N[C@H](CCN)C(=O)N[C@@H](Cc1ccccc1)C(=O)N[C@@H](CCC(=O)O)C(=O)N[C@H](C(=O)N[C@@H](C(=O)N[C@@H](C)C(=O)O)[C@@H](C)CC)C(C)C)C(C)C = false (0)
CC[C@H](C)[C@@H](NC(=O)[C@@H](NC(=O)[C@H](CCC(=O)O)NC(=O)[C@H](Cc1ccccc1)NC(=O)[C@@H](CCN)NC(=O)[C@H](CCN)NC(=O)[C@H](CO)NC(=O)[C@@H](Cc1c[nH]c2ccccc12)NC(=O)[C@@H](CO)NC(=O)CNC(=O)[C@@H](CCN)NC(=O)[C@H](NC(=O)[C@H](C)N)C(C)C)C(C)C)C(=O)N[C@@H](C)C(=O)O = true (1)
CC[C@H](C)[C@@H](NC(=O)[C@@H](NC(=O)[C@H](CCC(=O)O)NC(=O)[C@H](Cc1ccccc1)NC(=O)[C@@H](CN)NC(=O)[C@H](CCN)NC(=O)[C@H](CO)NC(=O)[C@@H](Cc1c[nH]c2ccccc12)NC(=O)[C@@H](CO)NC(=O)CNC(=O)[C@@H](CCN)NC(=O)[C@H](N)C(C)C)C(C)C)C(=O)N[C@@H](C)C(=O)O = true (1)
CC[C@H](C)[C@@H](NC(=O)[C@@H](NC(=O)[C@H](CCC(=O)O)NC(=O)[C@H](Cc1ccccc1)NC(=O)[C@@H](CCN)NC(=O)[C@H](CCN)NC(=O)[C@H](CO)NC(=O)[C@@H](Cc1c[nH]c2ccccc12)NC(=O)[C@@H](CO)NC(=O)CNC(=O)[C@@H](CCN)NC(=O)[C@H](NC(=O)CCN)C(C)C)C(C)C)C(=O)N[C@@H](C)C(=O)O = true (1)
CC[C@H](C)[C@@H](NC(=O)[C@@H](NC(=O)[C@H](CCC(=O)O)NC(=O)[C@H](Cc1c[nH]c2ccccc12)NC(=O)[C@@H](CCN)NC(=O)[C@H](CCN)NC(=O)[C@H](CO)NC(=O)[C@@H](Cc1c[nH]c2ccccc12)NC(=O)[C@@H](CO)NC(=O)CNC(=O)[C@@H](CCN)NC(=O)[C@H](NC(=O)[C@H](C)N)C(C)C)C(C)C)C(=O)N[C@@H](C)C(=O)O = false (0)
CC(C)[C@H](NC(=O)[C@H](CCC(=O)O)NC(=O)[C@H](Cc1ccccc1)NC(=O)[C@@H](CCN)NC(=O)[C@H](CCN)NC(=O)[C@H](CO)NC(=O)[C@@H](Cc1c[nH]c2ccccc12)NC(=O)[C@@H](CO)NC(=O)CNC(=O)[C@@H](CCN)NC(=O)[C@H](N)C(C)C)C(=O)N[C@@H](C(=O)N[C@@H](C)C(N)=O)C(C)(C)C = true (1)

====

# hemolysis at 0.75 h, 400 ug/ml per record follows
assay: Hemolytic activity in human red blood cells at 400 ug/ml incubated for 45 mins by spectrophotometric analysis relative to control; type: toxicity, cell-based, Erythrocyte; settings: red blood cells (erythrocytes), at 400 µg/mL, read-out: Activity
property_measured: hemolysis at 0.75 h, 400 ug/ml (%)

CC[C@H](C)[C@@H](NC(=O)[C@@H](NC(=O)[C@H](CCC(=O)O)NC(=O)[C@H](Cc1ccccc1)NC(=O)[C@@H](CCN)NC(=O)[C@H](CCN)NC(=O)[C@H](CO)NC(=O)[C@@H](Cc1c[nH]c2ccccc12)NC(=O)[C@@H](C)NC(=O)CNC(=O)[C@@H](CCN)NC(=O)[C@H](NC(=O)[C@H](C)N)C(C)C)C(C)C)C(=O)N[C@@H](C)C(=O)O = 0
CC[C@H](C)[C@@H](NC(=O)[C@H](C)NC(=O)[C@H](CCC(=O)O)NC(=O)[C@H](Cc1ccccc1)NC(=O)[C@@H](CCN)NC(=O)[C@H](CCN)NC(=O)[C@H](CO)NC(=O)[C@@H](Cc1c[nH]c2ccccc12)NC(=O)[C@@H](CO)NC(=O)CNC(=O)[C@@H](CCN)NC(=O)[C@H](NC(=O)[C@H](C)N)C(C)C)C(=O)N[C@@H](C)C(=O)O = 5.5
CC[C@H](C)[C@@H](NC(=O)[C@@H](NC(=O)[C@H](CCC(=O)O)NC(=O)[C@H](Cc1ccccc1)NC(=O)[C@@H](CCN)NC(=O)[C@H](CN)NC(=O)[C@H](CO)NC(=O)[C@@H](Cc1c[nH]c2ccccc12)NC(=O)[C@@H](CO)NC(=O)CNC(=O)[C@@H](CCN)NC(=O)[C@H](N)C(C)C)C(C)C)C(=O)N[C@@H](C)C(=O)O = 1.5
CC[C@H](C)[C@H](N)C(=O)N[C@@H](C(=O)N[C@H](CCN)C(=O)NCC(=O)N[C@H](CO)C(=O)N[C@H](Cc1c[nH]c2ccccc12)C(=O)N[C@@H](CO)C(=O)N[C@@H](CCN)C(=O)N[C@H](CCN)C(=O)N[C@@H](Cc1ccccc1)C(=O)N[C@@H](CCC(=O)O)C(=O)N[C@H](C(=O)N[C@@H](C(=O)N[C@@H](C)C(=O)O)[C@@H](C)CC)C(C)C)C(C)C = 56.9
CC[C@H](C)[C@@H](NC(=O)[C@@H](NC(=O)[C@H](CCC(=O)O)NC(=O)[C@H](Cc1ccccc1)NC(=O)[C@@H](CCN)NC(=O)[C@H](CCN)NC(=O)[C@H](CO)NC(=O)[C@@H](Cc1c[nH]c2ccccc12)NC(=O)[C@@H](CO)NC(=O)CNC(=O)[C@@H](C)NC(=O)[C@H](NC(=O)[C@H](C)N)C(C)C)C(C)C)C(=O)N[C@@H](C)C(=O)O = 0.6
CC[C@H](C)[C@H](NC(=O)[C@H](CCC(=O)O)NC(=O)[C@H](Cc1ccccc1)NC(=O)[C@@H](CCN)NC(=O)[C@H](CCN)NC(=O)[C@H](CO)NC(=O)[C@@H](Cc1c[nH]c2ccccc12)NC(=O)[C@@H](CO)NC(=O)CNC(=O)[C@@H](CCN)NC(=O)[C@H](N)C(C)C)C(=O)N[C@@H](C(=O)N[C@@H](C)C(=O)O)[C@@H](C)CC = 70.6

====

test system: Klebsiella pneumoniae; assay: Antibacterial activity against wild-type Klebsiella pneumoniae ATCC 13883 assessed as inhibition of bacterial growth incubated for 18 hrs in presence of 50% heat inactivated human serum; type: functional; conditions: read-out: MIC100
Below is a list of entries, each paired with its recorded MIC value.
property_measured: MIC (µg/mL)

CC[C@H](C)[C@@H](NC(=O)[C@@H](NC(=O)[C@H](CCC(=O)O)NC(=O)[C@H](Cc1ccccc1)NC(=O)[C@@H](CCN)NC(=O)[C@H](CCN)NC(=O)[C@H](CO)NC(=O)[C@@H](Cc1c[nH]c2ccccc12)NC(=O)[C@@H](CO)NC(=O)CNC(=O)[C@@H](CCN)NC(=O)[C@H](NC(=O)[C@H](C)N)C(C)C)C(C)(C)C)C(=O)N[C@@H](C)C(N)=O = 0.125
CC[C@H](N)C(=O)N[C@@H](C(=O)N[C@H](CCN)C(=O)NCC(=O)N[C@H](CO)C(=O)N[C@H](Cc1c[nH]c2ccccc12)C(=O)N[C@@H](CO)C(=O)N[C@@H](CCN)C(=O)N[C@H](CCN)C(=O)N[C@@H](Cc1ccccc1)C(=O)N[C@@H](CCC(=O)O)C(=O)N[C@H](C(=O)N[C@@H](C(=O)N[C@@H](C)C(=O)O)[C@@H](C)CC)C(C)C)C(C)C = 0.5

src = ChEMBL document CHEMBL5518181
